Values compiled from patent US20120045393A1.

target: LHRH binding sites on EFO-27 human ovarian cancer cells (human); assay: competition with [125I-Tyr8]BRU-2477 on EFO-27 cells
Non-standard residues stand in square brackets, D forms with d. Primed or numbered codes have the meaning given here. *: point of attachment. DO3A10CM(3) = metal chelator group attached at the N-terminus (X in table rows); Bpa = N[C@@H](Cc1ccc(C(=O)c2ccccc2)cc1)C(=O)O; 3Pal = N[C@@H](Cc1cccnc1)C(=O)O; DO3A10CM = not defined here; Nicotinoyl = O=C(c1cccnc1)*; azaGly = NNC(=O)O; Sar = CNCC(=O)O
attribute measured: EC50 (nM)

INSERT INTO results (binder, attribute_measured, value_observed) VALUES
  ('XRWSHXWXPX (DO3A10CM on N-terminus; AA1 Bip; AA6 Darg; AA8 Bpa4; AA10 azaGly-NH2) [BRU-3070]', 'EC50', 280),
  ('XRWSHXWXPX (DO3A10CM on N-terminus; AA1 Atdc2; AA6 Darg; AA8 Bpa4; AA10 azaGly-NH2) [BRU-3055]', 'EC50', 390),
  ('XRWSHXWXPX (DO3A10CM on N-terminus; AA1 Ampha4; AA6 Darg; AA8 Bpa4; AA10 azaGly-NH2) [BRU-3094]', 'EC50', 350),
  ('DO3A10CM-[Sar][3Pal]WSH[dR]W[Bpa]P[azaGly]-NH2 (reading uncertain) [BRU-2818]', 'EC50', 1620),
  ('{DO3A10CM(3)}-[Sar]HWSH[dK](Nicotinoyl)WYP[azaGly]-NH2 [BRU-2674]', 'EC50', 22600),
  ('XRWSHXWXP (DO3A10CM on N-terminus; AA1 Dnal2; AA6 Darg; AA8 Bpa4; AA10 Gua (guanidine)) [BRU-2984]', 'EC50', 400),
  ('XHWSHXWXPX (DO3A10CM on N-terminus; AA1 Sar; AA6 Darg; AA8 Bpa4; AA10 azaGly-NH2) [BRU-2443]', 'EC50', 950),
  ('DO3A10CM-[Sar]HWSH[dW]W[Bpa]P[azaGly]-NH2 (reading uncertain) [BRU-2731]', 'EC50', 1360),
  ('XHWSHXWXPX (DO3A10CM on N-terminus; AA1 Sar; AA6 Dcit; AA8 Bpa4; AA10 azaGly-NH2) [BRU-2729]', 'EC50', 14200),
  ('XRWSHXWXP (DO3A10CM on N-terminus; AA1 Dnal2; AA6 Darg; AA8 Bpa4; AA10 Ae (aminoethane)) [BRU-2981]', 'EC50', 970);

1 = XRWSHXWXP (not fully specified; DO3A10CM on N-terminus; AA1 Dnal2 (Table 6; Sar in paragraph 138); AA6 Darg; AA8 Bpa4; AA10 Az23po-Dabt14) [BRU-3019]
2 = XHWSHXWXPX (DO3A10CM on N-terminus; AA1 Sar; AA6 Darg; AA8 Tha; AA10 azaGly-NH2) [BRU-2742]
In: Returns: the argument ( 1 or 2 ) having the larger EC50. Use the label to indicate which entry you chose.
Out: 2
